Origin of values: patent US20050130903A1

# assay-procedure: stability in liver microsomes
# Type: in vitro ADME, rat
# particulars: male, rat, liver microsomes, pH 7.4, male rat liver microsomes 0.5 mg/mL, NADPH regenerating system, with 1 μM EH inhibitor, read-out: T1/2 (with EH inhibitor)
readout-name: half-life at 3 μM (min)

> print(dat)
                         compound.structure  reading
1  CO[C@@H]1[C@H](OC(=O)N[C@@H](C(N)=O)C(C)C)CC[C@]2(CO2)[C@H]1[C@@]1(C)O[C@@H]1CC=C(C)C     12.1

====

# assay-procedure: plasma stability in human plasma
# Format: in vitro ADME
# particulars: human
readout-name: recovery at 15 min, 20 μM (%)

> print(dat)
                                   compound  reading
1  CO[C@@H]1[C@H](OC(=O)N[C@@H](C(N)=O)C(C)C)CC[C@]2(CO2)[C@H]1[C@@]1(C)O[C@@H]1CC=C(C)C [Example 5]      108

====

# assay-procedure: plasma stability in human plasma
# Type: in vitro ADME
# particulars: human
readout-name: recovery at 0 min, 20 μM (%)

> print(dat)
                         compound.structure  reading
1  CO[C@@H]1[C@H](OC(=O)N[C@@H](C(N)=O)C(C)C)CC[C@]2(CO2)[C@H]1[C@@]1(C)O[C@@H]1CC=C(C)C      100

====

# tgt: MetAP2 (Homo sapiens, UniProt P50579)
# Construct: made in house; host or cells: insect cells
# Sequence (P50579 whole entry): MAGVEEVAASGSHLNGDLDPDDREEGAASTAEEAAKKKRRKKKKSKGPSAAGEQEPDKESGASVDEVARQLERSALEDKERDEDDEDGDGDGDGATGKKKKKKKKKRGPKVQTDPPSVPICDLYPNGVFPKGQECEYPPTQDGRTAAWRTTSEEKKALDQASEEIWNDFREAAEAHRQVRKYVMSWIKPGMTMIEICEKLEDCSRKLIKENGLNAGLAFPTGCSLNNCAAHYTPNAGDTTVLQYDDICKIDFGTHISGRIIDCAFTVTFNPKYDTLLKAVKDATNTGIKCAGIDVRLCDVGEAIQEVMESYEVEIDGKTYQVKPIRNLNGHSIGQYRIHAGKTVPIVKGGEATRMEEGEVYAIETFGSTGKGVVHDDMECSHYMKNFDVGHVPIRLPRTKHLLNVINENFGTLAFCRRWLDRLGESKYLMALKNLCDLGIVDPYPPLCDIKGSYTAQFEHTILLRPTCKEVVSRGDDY
# assay-procedure: MetAP2 enzyme assay
# Assay type: biochemical
# particulars: read-out: MetAP2 Assay IC50
# IC50 values compiled below
readout-name: IC50 (nM)

> print(dat)
                         compound.structure                                    tgt  readout.name  reading
1  COC(=O)[C@@H](NC(=O)O[C@@H]1CC[C@]2(CO2)[C@@H]([C@@]2(C)O[C@@H]2CC=C(C)C)[C@@H]1OC)C(C)C  MetAP2 (Homo sapiens, UniProt P50579)          IC50      4.7
2  COC(=O)[C@H](NC(=O)O[C@@H]1CC[C@]2(CO2)[C@@H]([C@@]2(C)O[C@@H]2CC=C(C)C)[C@@H]1OC)c1ccccc1  MetAP2 (Homo sapiens, UniProt P50579)          IC50      2.7
3  COC(=O)[C@@H](CC(C)C)NC(=O)O[C@@H]1CC[C@]2(CO2)[C@@H]([C@@]2(C)O[C@@H]2CC=C(C)C)[C@@H]1OC  MetAP2 (Homo sapiens, UniProt P50579)          IC50      5.5
4  COC(=O)[C@H](NC(=O)O[C@@H]1CC[C@]2(CO2)[C@@H]([C@@]2(C)O[C@@H]2CC=C(C)C)[C@@H]1OC)C(C)C  MetAP2 (Homo sapiens, UniProt P50579)          IC50        2

====

# assay-procedure: plasma stability in human plasma
# Assay type: in vitro ADME
# particulars: human
readout-name: recovery at 90 min, 20 μM (%)

> print(dat)
                         compound.structure               readout.name  unit.abbrev  reading
1  CO[C@@H]1[C@H](OC(=O)N[C@@H](C(N)=O)C(C)C)CC[C@]2(CO2)[C@H]1[C@@]1(C)O[C@@H]1CC=C(C)C  recovery at 90 min, 20 μM            %      129

====

# assay-procedure: plasma stability in human plasma
# Assay type: in vitro ADME
# particulars: human
readout-name: recovery at 30 min, 20 μM (%)

> print(dat)
                                   compound               readout.name  reading
1  CO[C@@H]1[C@H](OC(=O)N[C@@H](C(N)=O)C(C)C)CC[C@]2(CO2)[C@H]1[C@@]1(C)O[C@@H]1CC=C(C)C [Example 5]  recovery at 30 min, 20 μM      103
